# credit: the supplement of paper PMC10981050

Tested on: MOLM14
Test: cell viability relative to vehicle control; higher = less cytotoxic;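 further: after 48 h exposure read by CellTiter-Glo luminescence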
Conditions: 10 µM; SRSF2 genotype: SRSF2 wt/wt
Please respond with reported cell viability for every item in the list.
Please answer using the number first and the unit second.

Task: So what's the measured cell viability for this one? Cc1ccsc1C(=CCCN1CCC[C@@H](C(=O)O)C1)c1sccc1C [Tiagabine]
Result: 101%

Task: What does the record list as cell viability for CC(C)OC(=O)C(C(=O)OC(C)C)=C1SC=CS1 [Malotilate] ?
Result: 99.4%

Task: Request the reported cell viability associated with C=CC(=O)N1CCC[C@@H](n2nc(-c3ccc(Oc4ccccc4)cc3)c3c(N)ncnc32)C1
Result: 17.8%

Task: Would you kindly share the measured cell viability for CC(Nc1nc(N2CCCC2)nc2ccccc12)c1ccccc1 (stereo unspecified) [Importazole] ?
Result: 48.2%

Task: I would be grateful if you could share the reported cell viability for CC1(C)S[C@@H]2[C@H](NC(=O)[C@H](N)c3ccccc3)C(=O)N2[C@H]1C(=O)OCOC(=O)[C@@H]1N2C(=O)C[C@H]2S(=O)(=O)C1(C)C [Sultamicillin] .
Result: 102%

Task: What does the data say about its cell viability? Entry: O=C(O)Cc1ccccc1Nc1c(Cl)cccc1Cl [Diclofenac Diethylamine]
Result: 102%

Task: Fill blank: measured cell viability of the molecule CN1CCN(Cc2ccc(Nc3ncc(Cl)c(Nc4ccccc4S(=O)(=O)N(C)C)n3)cc2)CC1 is ____.
Result: 0.64%

Task: For the molecule COc1ccc(C(C)=O)c(O)c1 [Paeonol (Peonol)] , what cell viability is on record?
Result: 102%

Task: Which cell viability is reported for this molecule? Clc1ccc(COC(Cn2ccnc2)c2ccc(Cl)cc2Cl)c(Cl)c1 (stereo unspecified) [Miconazole (Monistat)]
Result: 54.8%

Task: Bench note: what cell viability did COc1ccc(Cl)c(Nc2nc3ccccc3nc2NS(=O)(=O)c2cccc(NC(=O)C(C)(C)N)c2)c1 [Pilaralisib (XL147)] show?
Result: 55%

Task: Data request, read-out cell viability, for O=C(/C=C/c1ccc(O[C@@H]2O[C@H](CO)[C@@H](O)[C@H](O)[C@H]2O)cc1)c1ccc(O)cc1O [Isoliquiritin]
Result: 87.6%

* * *

I'd appreciate it if you could supply cell viability values for the items below.
Test system: K562
Assay: cell viability relative to vehicle control; higher = less cytotoxic
Settings: 10 µM; SRSF2 genotype: SRSF2 wt/wt
Structures can show the parent of a compound that is named as a salt.
The figure you give is taken to be in %; do not add the unit.

Task: Tell me the measured cell viability of Cc1ccc(C(=O)N(CCCN)[C@@H](c2oc3cc(Cl)ccc3c(=O)c2Cc2ccccc2)C(C)C)cc1 , please.
Result: 0.52

Task: Look at this compound and give its reported cell viability. Cc1cc(F)c(Nc2ncnc3cc(OCc4ccccc4)ccc23)cc1O
Result: 94.6

Task: // lookup cell viability for CS(=O)(=O)c1ccc(-c2cnc(N)c(C(=O)Nc3ccccc3)n2)cc1
Result: 116

Task: If you can, please state the reported cell viability value of CC(C)Oc1ccc(-c2nn([C@@H](C)c3oc4ccc(F)cc4c(=O)c3-c3cccc(F)c3)c3ncnc(N)c23)cc1F .
Result: 87.6

Task: // lookup cell viability for COc1cc2oc(-c3ccccc3)cc(=O)c2c(OC)c1OC
Result: 107

Task: Entry under review: NC(=O)c1cccc2cn(-c3ccc([C@@H]4CCCNC4)cc3)nc12 [MK-4827(Niraparib) tosylate] . Reported cell viability?
Result: 87.5

Task: Entry under review: COCCOC(=O)C1=C(C)NC(C)=C(C(=O)OC/C=C/c2ccccc2)C1c1cccc([N+](=O)[O-])c1 (stereo not given) . Reported cell viability?
Result: 81.2

Task: What value of cell viability has been recorded for this entry: OC[C@H]1O[C@@H](Oc2cc(O)cc(/C=C/c3ccc(O[C@@H]4O[C@H](CO)[C@@H](O)[C@H](O)[C@H]4O)cc3O)c2)[C@H](O)[C@@H](O)[C@@H]1O [Mulberroside A]
Result: 98.2

Task: Name the reported cell viability value associated with the compound CC1=C(/C=C/C(C)=C/C=C/C(C)=C/C=C/C=C(C)/C=C/C=C(C)/C=C/C2=C(C)CCCC2(C)C)C(C)(C)CCC1
Result: 92

Task: // cell viability lookup, key: O=c1cc(N2CCOCC2)oc2c(-c3ccc4c(c3)OCCO4)csc12
Result: 46.9

Task: Param item = C[N+]1(C)[C@@H]2C[C@@H](OC(=O)C(O)(c3cccs3)c3cccs3)C[C@H]1[C@@H]1O[C@@H]12 [Tiotropium Bromide hydrate] ; retrieve measured cell viability.
Result: 98.9

Task: cell viability for Cc1ccc(=O)n(-c2ccccc2)c1 ?
Result: 103

Task: Sample CN1CCN(c2nc(C3=C(c4c[nH]c5ccccc45)C(=O)NC3=O)c3ccccc3n2)CC1 — what was its cell viability?
Result: 81.6

Task: Which cell viability is reported for this compound? CCN1CCN(C(=O)N[C@@H](C(=O)N[C@@H]2C(=O)N3C(C(=O)O)=C(CSc4nnnn4C)CS[C@H]23)c2ccc(O)cc2)C(=O)C1=O
Result: 91.7

Task: What does the data say about its cell viability? Entry: C=C1/C(=C\C=C2/CCC[C@]3(C)[C@@H]([C@H](C)/C=C/[C@H](C)C(C)C)CC[C@@H]23)C[C@@H](O)C[C@@H]1O
Result: 86.5

Task: Could you share which cell viability value was measured for C[C@H]1C[C@H]2[C@@H]3CCC4=CC(=O)C=C[C@]4(C)[C@H]3C(=O)C[C@]2(C)[C@@]1(O)C(=O)CO ?
Result: 93

Task: Using the record for COc1cc(NC(=O)c2ccc(-c3ccc(Cl)cc3)o2)cc(OC)c1 , report its cell viability.
Result: 103

Task: Bench note: what cell viability did CCN(CC)CCOC(=O)c1ccc(N)cc1 [Procaine (Novocaine) HCl] show?
Result: 95.9

Task: Which cell viability value belongs to Cc1nc2n(c(=O)c1CCN1CCC(c3noc4cc(F)ccc34)CC1)CCCC2 [Risperidone (Risperdal)] ?
Result: 93.5

Task: Recorded cell viability for O=C(O)c1ccc(Cl)cc1O [4-Chloro-2-hydroxybenzoic acid] , please?
Result: 98.6

Task: Quick one: cell viability of CN(C)c1ccc2nc3ccc(=[N+](C)C)cc-3sc2c1 ?
Result: 17.1

Task: Requested field: cell viability. Item: Oc1ccc(-c2c(-c3ccccc3)nn3c(C(F)(F)F)cc(C(F)(F)F)nc23)cc1
Result: 83

Task: Form field: reported cell viability of O=C(O)c1ccc2c(c1)C(=O)c1ccccc1C2=O
Result: 92.5

Task: For the compound shown here, Cc1cc(C(=O)NOCCO)c(Nc2ccc(I)cc2F)n(C)c1=O , give the reported cell viability.
Result: 84.6

Task: So what does the record say about cell viability for Nc1nc(Cl)nc2c1ncn2[C@@H]1O[C@H](CO)[C@@H](O)[C@@H]1F ?
Result: 105
